- Assay Comment: Half life period […] determined in rat plasma
- Format: ADME, cell-free
Observation Type: half-life (h)

1 = COc1c([C@@H](O)CC(C)C)ccc2c1C(=O)Oc1cc(C)cc(OC(=O)C3(C)CC4C=CC3C4)c1O2 (stereo not given in full)
2 = COc1c([C@@H](O)CC(C)C)ccc2c1C(=O)Oc1cc(C)cc(OC(=O)C3(C)C4CCC3CC4)c1O2 (stereo not given in full)
Recorded half-life values differ for 1 and 2 ; which one is higher? Pick one and reply with its label.
2
(2: 4.2 h, 1: 0.64 h)

###

- Assayed System: Cholesteryl ester transfer protein (Homo sapiens, UniProt P11597)
- Sequence (P11597 whole entry): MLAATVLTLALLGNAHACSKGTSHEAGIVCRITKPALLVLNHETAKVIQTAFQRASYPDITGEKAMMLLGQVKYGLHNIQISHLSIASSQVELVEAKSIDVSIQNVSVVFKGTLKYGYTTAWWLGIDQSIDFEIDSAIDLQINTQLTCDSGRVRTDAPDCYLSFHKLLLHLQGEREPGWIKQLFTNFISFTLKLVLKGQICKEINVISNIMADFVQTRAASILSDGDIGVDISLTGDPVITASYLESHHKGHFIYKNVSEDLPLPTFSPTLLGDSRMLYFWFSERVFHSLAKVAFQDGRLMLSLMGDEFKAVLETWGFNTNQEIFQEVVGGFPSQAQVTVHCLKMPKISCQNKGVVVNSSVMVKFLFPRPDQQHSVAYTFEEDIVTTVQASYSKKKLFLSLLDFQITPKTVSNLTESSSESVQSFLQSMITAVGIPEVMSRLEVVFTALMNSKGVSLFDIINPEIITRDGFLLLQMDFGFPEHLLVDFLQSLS
Observation Type: IC50 (µM)

>>> readout_value("CCc1c(C)c(Cl)c2c(c1OC(=O)C1(C)C3CCC1CC3)Oc1ccc([C@@H](O)CC(C)(C)C)c(OC)c1C(=O)O2 (stereo partly drawn)")
0.015

P = COc1c([C@@H](O)CC(C)C)ccc2c1C(=O)Oc1cc(C)cc(OS(=O)(=O)C(C)C)c1O2
Q = COc1c(C(O)CC2CC2)ccc2c1C(=O)Oc1cc(C)cc(OCCC(C)C)c1O2 (racemic)
Hi there, can you help? I need to know whether P or Q has lower measured IC50. Your answer should be the label attached to the chosen record.
P

###

- Assay Comment: Half life period […] determined in rat plasma
- Assay type: ADME, organism-based
Observation Type: half-life (min)
All answers are understood in min, so give the number only.

>>> readout_value("COc1c([C@@H](O)CC(C)C)ccc2c1C(=O)Oc1cc(C)cc(OC(=O)N3CCCC3)c1O2")
174

Now, please, on to the next compound.
Given COc1c([C@@H](O)CC(C)C)ccc2c1C(=O)Oc1cc(C)cc(OC(=O)[N+]34CCC(CC3)C4)c1O2 , state its recorded half-life.
234

###

half-life reference
- Assay Comment: Half life period […] determined in rat plasma
- Type: ADME, cell-free

Sample records with half-life:
>>> readout_value("COc1c([C@@H](O)CC(C)C)ccc2c1C(=O)Oc1c(Cl)c(C)c(C)c(OC(=O)C3(C)C4CCC3CC4)c1O2 (stereo partly drawn)")
"> 3 h"
>>> readout_value("COc1c([C@@H](O)CC(C)C)ccc2c1C(=O)Oc1cc(C)cc(OC(=O)C3CC4C=CC3C4)c1O2 (stereo partly drawn)")
"< 0.1 h"

For COc1c([C@@H](O)CC(C)C)ccc2c1C(=O)Oc1c(Cl)c(C)c(Br)c(OC(=O)C3(C)C4CCC3CC4)c1O2 (stereo partly drawn) , what is its reported half-life?
> 3 h

###

- Assayed System: Cholesteryl ester transfer protein (Homo sapiens, UniProt P11597)
molecules and their reported IC50
Write the number in nM without appending the unit.

>>> readout_value("COc1c([C@@H](O)CC(C)C)ccc2c1C(=O)Oc1cc(C)cc(OC(=O)N3CC4CCC4C3)c1O2 (stereo not given in full)")
400
>>> readout_value("COc1c([C@@H](O)CC(C)C)ccc2c1C(=O)Oc1cc(C)cc(OS(=O)(=O)C(F)(F)F)c1O2")
10000
>>> readout_value("COc1c([C@@H](O)CC(C)C)ccc2c1C(=O)Oc1cc(C)cc(OC(=O)[N+]34CCC(CC3)C4)c1O2")
200

Then there is this molecule:
# returns recorded IC50 (system: Cholesteryl ester transfer protein (Homo sapiens, UniProt P11597)) for COc1c([C@@H](O)CC(C)C)ccc2c1C(=O)Oc1cc(C)cc(OC(=O)N(C(C)C)C(C)C)c1O2
700

Reference for the values: ChEMBL document CHEMBL1142763
